# assayed.target: hERG K+ channel (Homo sapiens, UniProt Q12809)
# Construct: expressed in transfected cells; host or cells: CHO (Chinese hamster ovary), CHOhERG
# Sequence (Q12809 whole entry): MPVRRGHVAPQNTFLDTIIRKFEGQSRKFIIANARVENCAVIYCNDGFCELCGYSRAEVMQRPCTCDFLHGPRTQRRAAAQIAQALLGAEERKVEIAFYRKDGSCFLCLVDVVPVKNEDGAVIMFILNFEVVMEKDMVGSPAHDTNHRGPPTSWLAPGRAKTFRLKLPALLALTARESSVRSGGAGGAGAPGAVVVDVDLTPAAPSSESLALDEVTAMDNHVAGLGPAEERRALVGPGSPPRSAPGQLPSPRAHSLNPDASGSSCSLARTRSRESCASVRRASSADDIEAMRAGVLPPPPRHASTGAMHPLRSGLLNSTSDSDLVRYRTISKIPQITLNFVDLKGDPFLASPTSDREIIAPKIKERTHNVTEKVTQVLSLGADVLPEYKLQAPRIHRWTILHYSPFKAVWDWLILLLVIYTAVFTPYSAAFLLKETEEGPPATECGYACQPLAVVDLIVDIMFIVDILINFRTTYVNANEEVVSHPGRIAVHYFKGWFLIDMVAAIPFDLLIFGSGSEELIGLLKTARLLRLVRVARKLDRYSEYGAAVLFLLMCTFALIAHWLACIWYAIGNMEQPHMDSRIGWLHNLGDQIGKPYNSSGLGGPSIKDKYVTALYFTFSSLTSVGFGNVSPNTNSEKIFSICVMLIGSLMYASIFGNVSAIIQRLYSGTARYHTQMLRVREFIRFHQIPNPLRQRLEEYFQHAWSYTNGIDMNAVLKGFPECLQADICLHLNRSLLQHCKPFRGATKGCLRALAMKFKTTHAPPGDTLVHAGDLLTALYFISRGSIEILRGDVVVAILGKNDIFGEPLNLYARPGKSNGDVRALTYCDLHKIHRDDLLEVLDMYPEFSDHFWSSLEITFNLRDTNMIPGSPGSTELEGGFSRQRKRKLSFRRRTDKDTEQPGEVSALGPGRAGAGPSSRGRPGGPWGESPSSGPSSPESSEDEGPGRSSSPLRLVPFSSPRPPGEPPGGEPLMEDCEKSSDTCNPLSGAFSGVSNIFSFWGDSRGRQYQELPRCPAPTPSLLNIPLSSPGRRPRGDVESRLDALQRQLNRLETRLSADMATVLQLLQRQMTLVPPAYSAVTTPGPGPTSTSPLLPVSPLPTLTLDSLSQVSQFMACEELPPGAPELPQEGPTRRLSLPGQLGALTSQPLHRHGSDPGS
# assay.procedure: hERG channel inhibition assay (patch-clamp, CHOhERG cells)
# Assay type: cell-based
# recorded.conditions: human, CHO cells stably expressing hERG (CHOhERG); CHOhERG cells, whole-cell patch-clamp
So I've got a bunch of compounds here, and I need their IC20 values.

Ask: Lab note: record IC20 of C[C@@H]1CN(c2ccc(C#N)c3ncccc23)C[C@@H]2C[C@H](Nc3ccc(C[C@@H]4CNCCO4)cc3)CCN21 tested on hERG K+ channel (Homo sapiens, UniProt Q12809).
Reply: > 10 µM

Ask: Consider the compound C[C@@H]1CN(c2ccc(C#N)c3ncccc23)C[C@@H]2C[C@H](N3CC(c4ccc(N5CCNCC5)cc4)C3)CCN21 tested on hERG K+ channel (Homo sapiens, UniProt Q12809); state its IC20.
Reply: > 10 µM

Ask: Name the recorded IC20 of CO[C@H]1CN(c2ccc([C@@H]3CCN4[C@@H](C3)CN(c3ccc(C#N)c5ncccc35)C[C@H]4C)cn2)C[C@@H]1N , assay system hERG K+ channel (Homo sapiens, UniProt Q12809).
Reply: 9.2 µM

Ask: Would you please give the reported IC20 of C[C@@H]1CN(c2ccc(C#N)c3ncccc23)C[C@@H]2C[C@H](Nc3ccc([C@H]4CNCCO4)cc3)CCN21 with hERG K+ channel (Homo sapiens, UniProt Q12809)?
Reply: > 10 µM

Ask: State recorded IC20 with hERG K+ channel (Homo sapiens, UniProt Q12809), entry [2H]c1ccc2c(N3C[C@@H]4C[C@H](Nc5ccc(C[C@H]6CNCCO6)cc5)CCN4[C@H](C)C3)ccc(C#N)c2n1 , no comment.
Reply: > 10 µM

Ask: Provide IC20, recorded with hERG K+ channel (Homo sapiens, UniProt Q12809), of C[C@@H]1CN(c2ccc(C#N)c3ncccc23)C[C@@H]2C[C@@H](Oc3ccc(N4CCNCC4)cn3)CCN21
Reply: > 10 µM
